Test system: Candida albicans
Protocol details: Antifungal activity against Candida albicans ATCC 10231 after 48 to 72 hrs by broth microdilution method
Assay type: functional
Active and inactive are the calls of the source. How the calls were made is not given here.
Property label: MIC80

Solved cases (5 shown):
>>> print(df.to_string())
                                     smiles   measured_target  observed_measurement
0     CN1C(=O)C(/C=N/c2ccncc2)C(=O)N(C)C1=O  Candida albicans              inactive
1      O=C1NC(=O)C(/C=N/c2ccc(O)cc2)C(=O)N1  Candida albicans              inactive
2  C/C(=N\NS(=O)(=O)c1ccc(C)cc1)C1C(=O)NC(=O)NC1=O  Candida albicans              inactive
3  COC(=O)N/N=C(\C)C1C(=O)N(C)C(=O)N(C)C1=O  Candida albicans              inactive
4           CN/N=C/C1C(=O)N(C)C(=O)N(C)C1=O  Candida albicans              62 µg/mL

Data request, read-out MIC80, for O=C1NC(=O)C(=C/C=C/c2ccccc2)C(=O)N1
62 µg/mL

Data request, read-out MIC80, for CN1C(=O)C(/C=N/Nc2ccccc2)C(=O)N(C)C1=O
4 µg/mL

Data request, read-out MIC80, for O=C1NC(=O)C(/C=N/c2ccc([N+](=O)[O-])cc2)C(=O)N1
inactive

###

Test system: Candida albicans
Protocol details: Antifungal activity against Candida albicans ATCC 10231 after 48 to 72 hrs by broth microdilution method
Format: functional
Calls of active or inactive are those of the source. The rule behind the calls is not given here.
Property label: MIC80

Solved cases (5 shown):
>>> df
                                   compound  observed_measurement
0         C/C(=N\N)C1C(=O)N(C)C(=O)N(C)C1=O              inactive
1        CN/N=C(\C)C1C(=O)N(C)C(=O)N(C)C1=O              inactive
2  O=C1NC(=O)N(c2ccccc2)C(=O)C1/C(=N/Nc1ccc([N+](=O)[O-])cc1[N+](=O)[O-])c1ccccc1 (centres undefined)              inactive
3        O=C1NC(=O)C(/C=N/c2ccccc2O)C(=O)N1               8 µg/mL
4  O=C1NC(=O)C(C(=NNc2ccc(C(=O)O)cc2)C2C(=O)NC(=O)NC2=O)C(=O)N1              inactive

Data request, read-out MIC80, for CN1C(=O)C(/C=N/n2cnnc2)C(=O)N(C)C1=O
inactive

Data request, read-out MIC80, for C/C(=N\NC(=O)c1ccccc1)C1C(=O)NC(=O)NC1=O
inactive

Data request, read-out MIC80, for CN1C(=O)C(/C=N/NC(=O)c2ccc([N+](=O)[O-])cc2)C(=O)N(C)C1=O
62 µg/mL

Data request, read-out MIC80, for COC(=O)N/N=C/C1C(=O)NC(=O)NC1=O
inactive

Data request, read-out MIC80, for CN1C(=O)C(/C=N/c2ccccc2O)C(=O)N(C)C1=O
8 µg/mL

Data request, read-out MIC80, for CN1C(=O)C(/C=N/N)C(=O)N(C)C1=O
125 µg/mL

Data request, read-out MIC80, for CN1C(=O)C(/C=N/c2nnc[nH]2)C(=O)N(C)C1=O
inactive

Data request, read-out MIC80, for CN1C(=O)C(/C=N/c2cccc(O)c2)C(=O)N(C)C1=O
inactive

Data request, read-out MIC80, for COc1cc(OC)c(C=C2C(=O)N(C)C(=O)N(C)C2=O)c(OC)c1
inactive
